Data credit: patent EP0321364A2

Overview of recorded MIC for various molecules
- System: Proteus rettgeri IFO3850
- Experiment: MIC, serial dilution method in Müller-Hinton agar
- Format: cell-based
- Test parameters: Providencia rettgeri; Proteus rettgeri IFO3850; Müller-Hinton agar, 37°C, 18 hours; read-out: MIC
Give just the numeric value; µg/mL need not be written.

Recorded results for 3 molecules are shown here.
{"Molecule": "CC1=C(C(=O)O)N2C(=O)[C@@H](NC(=O)[C@H](N)c3ccccc3)[C@H]2SC1 [CEX, Cefalexin, reference compound]", "Value observed": 12.5}
{"Molecule": "COCC1=C(C(=O)O)N2C(=O)C(NC(=O)[C@H](N)c3ccc(CO)c(O)c3)[C@H]2SC1 (stereo partly shown) [Example 2 Compound]", "Value observed": 25}
{"Molecule": "C=CC1=C(C(=O)O)N2C(=O)C(NC(=O)[C@H](N)c3ccc(CO)c(O)c3)[C@H]2SC1 (stereo partly shown) [Example 3 Compound]", "Value observed": 50}

## Task Supply recorded MIC for C/C=C\C1=C(C(=O)O)N2C(=O)C(NC(=O)[C@H](N)c3ccc(CO)c(OC)c3)[C@H]2SC1 (stereo partly shown) [Example 5 Compound] here.
## Result 3.13

---

Overview of recorded MIC for various molecules
- Tested on: Staphylococcus aureus FDA209P JC-1
- Experiment: MIC, serial dilution method in Müller-Hinton agar
- Format: cell-based
- Test parameters: Staphylococcus aureus FDA209P JC-1; Müller-Hinton agar, 37°C, 18 hours; read-out: MIC
Give just the numeric value; µg/mL need not be written.

{"Molecule": "COCC1=C(C(=O)O)N2C(=O)C(NC(=O)[C@H](N)c3ccc(CO)c(O)c3)[C@H]2SC1 (stereo partly shown)", "Assayed target": "Staphylococcus aureus FDA209P JC-1", "Value observed": 1.56}

## Task Supply recorded MIC for CC1=C(C(=O)O)N2C(=O)C(NC(=O)[C@H](N)c3ccc(CO)c(O)c3)[C@H]2SC1 (stereo partly shown) here.
## Result 3.13

## Task Supply recorded MIC for C=CC1=C(C(=O)O)N2C(=O)C(NC(=O)[C@H](N)c3ccc(CO)c(O)c3)[C@H]2SC1 (stereo partly shown) here.
## Result 1.56

## Task Supply recorded MIC for C/C=C\C1=C(C(=O)O)N2C(=O)C(NC(=O)[C@H](N)c3ccc(COC)c(OC)c3)[C@H]2SC1 (stereo partly shown) here.
## Result 0.78

---

- Tested on: Staphylococcus aureus MS353
- Experiment: MIC, serial dilution method in Müller-Hinton agar
- Assay type: cell-based
- Test parameters: Staphylococcus aureus MS353; Müller-Hinton agar, 37°C, 18 hours; read-out: MIC
Overview of recorded MIC for various compounds
Give just the numeric value; µg/mL need not be written.

Recorded results for 3 compounds are shown here.
{"Compound": "COCC1=C(C(=O)O)N2C(=O)C(NC(=O)[C@H](N)c3ccc(CO)c(O)c3)[C@H]2SC1 (stereo partly shown)", "Value observed": 1.56}
{"Compound": "C=CC1=C(C(=O)O)N2C(=O)C(NC(=O)[C@H](N)c3ccc(CO)c(O)c3)[C@H]2SC1 (stereo partly shown)", "Value observed": 1.56}
{"Compound": "CC1=C(C(=O)O)N2C(=O)C(NC(=O)[C@H](N)c3ccc(CO)c(O)c3)[C@H]2SC1 (stereo partly shown)", "Value observed": 3.13}

We now examine a further compound.
## Task Under Staphylococcus aureus MS353: report MIC of C/C=C\C1=C(C(=O)O)N2C(=O)C(NC(=O)[C@H](N)c3ccc(CO)c(OC)c3)[C@H]2SC1 (stereo partly shown) .
## Result 0.78
